I'd appreciate it if you could supply TGI values for the items below.
System: SK-MEL-5 melanoma
Experiment: NCI tumour cell line growth inhibition, 48 h

Reference set, count: 4
[[record]]
compound = "Cc1cc(O)c2cc3c(O)c(O)ccc3cc2c1"
metric = "TGI"
measured_value = "1.07 µM"

[[record]]
compound = "CCOC(=O)c1ncn2c1[nH]c(=O)c1ccccc12"
metric = "TGI"
measured_value = "> 100 µM"

[[record]]
compound = "O=C1C=Cc2c1csc2Br"
metric = "TGI"
measured_value = "> 100 µM"

[[record]]
compound = "Cc1ccc(S(=O)(=O)C(C#N)c2nc3ccccc3nc2N2CCOCC2)cc1 (stereo not given)"
metric = "TGI"
measured_value = "> 100 µM"


What value of TGI has been reported for the following compound? OC1=CN=C(C2CC2)Oc2ccccc21
> 100 µM

* * *

I'd appreciate it if you could supply TGI values for the items below.
Test system: NCI-H226 lung
Experiment: NCI tumour cell line growth inhibition, 48 h
One number for each entry, in µM.

[[record]]
molecule = "NC(Cc1ccc(O)cc1)C(=O)N/N=C/c1ccc(N(CCCl)CCCl)cc1 (centres undefined)"
measured_value = 31.6


If you can, please state the reported TGI value of c1ccc(CNCCCNCCCCNCCCNCc2ccccc2)cc1 .
17.2

* * *

Test system: NCI/ADR-RES ovarian
Experiment: NCI tumour cell line growth inhibition, 48 h
Metric: GI50

In the examples that follow, each entry is paired with its recorded GI50.
[[record]]
molecule = "Cc1cc(Br)c2nsnc2c1[N+](=O)[O-]"
measured_value = "4.54 µM"

[[record]]
molecule = "O=C1c2cccc3cccc(c23)C(=O)N1CC#Cc1ccc2c3c(cccc13)C(=O)N(CCN1CCNCC1)C2=O"
measured_value = "> 100 µM"


We now examine a further molecule.
Reported GI50, molecule COc1ccc(C2=NNC(c3cc(Cc4ccc(O)c(C5CC(c6ccc(OC)cc6)=NN5)c4)ccc3O)C2)cc1 (stereo not drawn) : ____
7.39 µM

* * *

Test system: OVCAR-3 ovarian
Experiment: NCI tumour cell line growth inhibition, 48 h
Consider the following compounds; for each one, report its TGI.

Recorded TGI, per entry:
[[record]]
compound = "N#CC12CC=C(c3ccccc3)N=C1NC(c1ccccc1)=CC2 (stereo not drawn)"
measured_value = "> 100 µM"

[[record]]
compound = "CC(C)CC(NC=O)C(=O)NC(Cc1ccccc1)NC(=O)CNC(=O)C(C)NC(=O)OC(C)(C)C (stereo not drawn)"
measured_value = "> 100 µM"

[[record]]
compound = "COC1=CCC2=C(CCN(C(=O)C3CC3)C2Cc2ccc(OC)c(O)c2)C1 (stereo not drawn)"
measured_value = "> 100 µM"

[[record]]
compound = "O=c1[nH]cc(CO)c(=O)[nH]1"
measured_value = "> 100 µM"

[[record]]
compound = "CC1C2CC(CC2O)C1(C)C (stereo not drawn)"
measured_value = "> 100 µM"

[[record]]
compound = "COC(=O)CCN1CCN(CCO)CC1C (stereo not drawn)"
measured_value = "> 10 µM"

[[record]]
compound = "Nc1nccc2c1ncn2C1C=C(CO)C(O)C1O (stereo not drawn)"
measured_value = "> 1000 µM"

[[record]]
compound = "Nc1cccc2c1CN(C1CCC(=O)NC1=O)C2=O (stereo not drawn)"
measured_value = "> 100 µM"


Please state TGI for every compound in the list that follows.
1. O=C1C=Cc2c1csc2Br
2. O=C(Cc1nc2ccc(C(=O)c3ccccc3)cc2[nH]c1=O)C(=O)Nc1ccc(C(F)(F)F)cc1[N+](=O)[O-]
3. Cc1ccc(N(C)S(=O)(=O)c2ccccc2)cc1
4. Nc1nc(NNc2ccccc2F)cc(=O)[nH]1

1: > 100 µM; 2: > 100 µM; 3: > 100 µM; 4: > 100 µM

Dear colleague, I am looking for the recorded TGI of the following compound: COC(=O)CSc1n[nH]c(-c2ccccc2)n1
> 100 µM
